Values were extracted from the supplement of paper PMC9112550.

tested on: Escherichia coli TOP10; assay: shrunken log2 fold change of peptide-encoding DNA abundance (4.5 h post-induction vs induction); higher = less antimicrobial activity (less host growth inhibition); conditions: time post-induction: 4.5 h; library: site-saturation at positions 5, 18, 19, 20
Entries annotated with measured shrunken log2 fold change
Write no unit; give the number alone.

INSERT INTO results (chain, value_measured) VALUES
  ('RRIRVRPPRLPRPRPRPFQWPRP', -0.126);

Ask: Please give the measured shrunken log2 fold change for this sequence: RRIRRRPPRLPRPRPRPHWKPRP
Result: -0.00963

Ask: Please give the measured shrunken log2 fold change for this sequence: RRIRCRPPRLPRPRPRPPAFPRP
Result: 0.504

Ask: Please give the measured shrunken log2 fold change for this sequence: RRIRERPPRLPRPRPRPMFEPRP
Result: 0.000206

Ask: Please give the measured shrunken log2 fold change for this sequence: RRIRARPPRLPRPRPRPAQHPRP
Result: 0.326

###

test system: Escherichia coli TOP10; assay: shrunken log2 fold change of peptide-encoding DNA abundance (4.5 h post-induction vs induction); higher = less antimicrobial activity (less host growth inhibition); conditions: time post-induction: 4.5 h; library: site-saturation at positions 5, 18, 19, 20;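 also: peptides expressed intracellularly from a pBAD plasmid library in pooled LB shake-flask culture, induced with 0.3% L-arabinose, DNA abundance read by NGS, three biological replicates, DESeq2 with apeglm shrinkage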
Output: class label from shrunken log2 fold change. Mapping: lower level = under -0.07, middle level = from -0.07 up to 0.04, upper level = 0.04 and over

Known results for sequences:
INSERT INTO results (chain, qualitative_label) VALUES
  ('RRIRKRPPRLPRPRPRPKMNPRP', 'upper level'),
  ('RRIRPRPPRLPRPRPRPQSKPRP', 'lower level'),
  ('RRIRSRPPRLPRPRPRPIPTPRP', 'upper level'),
  ('RRIRFRPPRLPRPRPRPSPHPRP', 'middle level'),
  ('RRIRPRPPRLPRPRPRPHQTPRP', 'lower level');

Ask: Class (by measured shrunken log2 fold change) for RRIRDRPPRLPRPRPRPFCWPRP
Result: upper level

Ask: Class (by measured shrunken log2 fold change) for RRIRVRPPRLPRPRPRPGQPPRP
Result: middle level

Ask: Class (by measured shrunken log2 fold change) for RRIRCRPPRLPRPRPRPGHIPRP
Result: lower level

Ask: Class (by measured shrunken log2 fold change) for RRIRQRPPRLPRPRPRPWMMPRP
Result: upper level

Ask: Class (by measured shrunken log2 fold change) for RRIRIRPPRLPRPRPRPCLLPRP
Result: lower level

Ask: Class (by measured shrunken log2 fold change) for RRIRIRPPRLPRPRPRPRWLPRP
Result: upper level

Ask: Class (by measured shrunken log2 fold change) for RRIRLRPPRLPRPRPRPETQPRP
Result: middle level

Ask: Class (by measured shrunken log2 fold change) for RRIRHRPPRLPRPRPRPNLIPRP
Result: middle level

Ask: Class (by measured shrunken log2 fold change) for RRIRFRPPRLPRPRPRPTPMPRP
Result: upper level

Ask: Class (by measured shrunken log2 fold change) for RRIRLRPPRLPRPRPRPPYFPRP
Result: lower level

Ask: Class (by measured shrunken log2 fold change) for RRIRTRPPRLPRPRPRPFQDPRP
Result: middle level

Ask: Class (by measured shrunken log2 fold change) for RRIRARPPRLPRPRPRPQMCPRP
Result: middle level

Ask: Class (by measured shrunken log2 fold change) for RRIRWRPPRLPRPRPRPPKYPRP
Result: lower level

Ask: Class (by measured shrunken log2 fold change) for RRIRYRPPRLPRPRPRPTTEPRP
Result: middle level

Ask: Class (by measured shrunken log2 fold change) for RRIRSRPPRLPRPRPRPDWYPRP
Result: lower level

Ask: Class (by measured shrunken log2 fold change) for RRIRPRPPRLPRPRPRPWTMPRP
Result: middle level
